Data provenance is patent EP4722363A1.

# Tested on: ANGPTL3 Protein
# ASSAY REMARKS: PCH free uptake, inhibition of ANGPTL3, ELISA of supernatant
# Assay type: cell-based
# SETTINGS: 1nM, primary cynomolgus monkey hepatocytes, 72 hours
Could you please report measured Average Inhibition in PCH % for the items listed next?
Give bare numbers, in %.

SUBSTANCE	Average Inhibition in PCH %, %
2008-035-001: GalNAc-conjugated modified ANGPTL3 siRNA, sense SEQ ID NO 42, antisense SEQ ID NO 28 (sense GAGAAGAACUACAUAUAAA; antisense UUUAUAUGUAGUUCUUCUCAG; GalNAc conjugated, chemically modified, pattern not given here) [Duplex 2008-035-001]	46.03

# ---- query substance ----
ANGPTL3 Protein Average Inhibition in PCH % of ARO-05488-003-NAG37: GalNAc-conjugated comparator ANGPTL3 siRNA, sense SEQ ID NO 44, antisense SEQ ID NO 45 (sense GCUCAACAUAUUUGAUCAGUA; antisense UACUGAUCAAAUAUGUUGAGC; GalNAc (NAG37) conjugate, chemistry not fully specified) [reference compound] is 28.48
